system: Penicillium digitatum; assay: Fungicidal activity against Penicillium digitatum assessed as fungal inhibitory rate at 16 ug/ml relative to control; assay type: functional
Lab note: compare inhibition at 16 µg/mL against 50%. Equal or greater, write class 1. Smaller, write class 0.

Input: Test whether the compound COC(=O)C1=C(N)OC2=C(CN(C(=O)c3ccco3)C/C2=C\c2ccc(Br)s2)C1c1ccc(Br)s1 (centres undefined) records inhibition at 16 µg/mL of 50% or higher.
Output: class 1

Input: Also, N#CC1=C(N)OC2=C(CN(C(=O)c3ccco3)C/C2=C\c2ccc(Br)s2)C1c1ccc(Br)s1 (centres undefined) please.
Output: class 0

Input: Another compound: COC(=O)C1=C(N)OC2=C(CN(C(=O)c3cccs3)C/C2=C\c2ccc(Cl)s2)C1c1ccc(Cl)s1 (centres undefined)
Output: class 1

Input: Next compound: N#CC1=C(N)OC2=C(CN(C(=O)c3ccco3)C/C2=C\c2ccc(Cl)s2)C1c1ccc(Cl)s1 (centres undefined)
Output: class 0

Input: Another compound to check: CN1CC2=C(OC(N)=C(C#N)C2c2ccc(Br)s2)/C(=C/c2ccc(Br)s2)C1 (centres undefined)
Output: class 0

Input: Follow-up item: N#CC1=C(N)OC2=C(CN(C(=O)c3cccs3)C/C2=C\c2cccs2)C1c1cccs1 (centres undefined)
Output: class 0

Input: How about COC(=O)C1=C(N)OC2=C(CN(C(=O)c3ccco3)C/C2=C\c2ccco2)C1c1ccco1 (centres undefined) ?
Output: class 1

Input: Now try N#CC1=C(N)OC2=C(CN(C(=O)c3cccs3)C/C2=C\c2ccco2)C1c1ccco1 (centres undefined) .
Output: class 1
